# ASSAY OVERVIEW: Solubility of crystalline polymorph in biologically relevant media (water, SGF, FaSSIF, FeSSIF), HPLC of supernatant, pH, XRPD of remaining solids
# Assay type: physicochemical
# REPORTED CONDITIONS: water, thermodynamic from solid; H2O, 37° C., 1 hr
# Description: The solubility of crystalline polymorph Form 1 was tested in biologically relevant media: water, simulated gastric fluid (SGF), fasted state simulated intestinal fluid (FaSSIF) and fed state simulated intestinal fluid (FeSSIF). […] The supernatant concentration was measured by HPLC (Mobile phase A: 0.1% NH3 in H2O, Mobile phase B: acetonitrile; flow rate: 0.8 mL/min; injection volume: 5 μL). […]
Known solubility at 1 h of a selection of molecules
Quick note: give the figure in µg/mL, leave out the unit.

[[record]]
molecule = "Cc1nn(-c2nc(C3=CCC(C(F)(F)F)CC3)c(SC(C)C)s2)c(C(=O)O)c1-c1cccc(F)c1 (centres unmarked) [Form 1]"
readout_name = "solubility at 1 h"
numeric_value = 490


// below: solubility at 1 h requested for another molecule
**Q:** Endpoint output: solubility at 1 h of Cc1nn(-c2nc(C3=CCC(C(F)(F)F)CC3)c(SC(C)C)s2)c(C(=O)[O-])c1-c1cccc(F)c1.[Na+] (centres unmarked) [Form 11] . Value?
**A:** 1400
